src = patent US20110045101A1

system: Puccinia recondita f. sp. tritici; assay: Test H: wheat leaf rust, test suspension sprayed after inoculation of wheat seedlings, visual disease rating; assay type: in vivo; settings: 200 ppm; 100 = 100% disease control, 0 = no control relative to controls
Endpoint Label: Test H disease control rating (%)

[[record]]
chemical_smiles = "Fc1cccc(F)c1-c1c(Br)nc(Br)n1-c1cccnc1Cl"
unit_tag = "%"
reported_result = 99

[[record]]
chemical_smiles = "Cc1cccc(-c2c(CCl)nc(Cl)n2-c2ccc(Cl)c(F)c2)n1"
unit_tag = "%"
reported_result = 0

[[record]]
chemical_smiles = "Cc1cccc(-c2c(C)ncn2-c2ccc(Cl)c(F)c2)n1"
unit_tag = "%"
reported_result = 32

[[record]]
chemical_smiles = "CCOc1ccc(F)c(-c2c(Cl)nc(C)n2-c2ccc(Cl)cc2)c1F"
unit_tag = "%"
reported_result = 53

[[record]]
chemical_smiles = "COc1cc(F)c(-c2c(Br)nc(Br)n2-c2ccc(C)nc2)c(F)c1"
unit_tag = "%"
reported_result = 100

[[record]]
chemical_smiles = "COc1cc(F)c(-c2c(C)nc(Cl)n2-c2ccc(C(F)(F)F)nc2)c(F)c1"
unit_tag = "%"
reported_result = 0

[[record]]
chemical_smiles = "COc1cc(F)c(-c2c(Cl)nc(Cl)n2Cc2ccc(Cl)nc2)c(F)c1Cl"
unit_tag = "%"
reported_result = 0

[[record]]
chemical_smiles = "COC(=O)c1ccc(-n2c(Br)nc(Cl)c2-c2c(F)cccc2F)cc1"
unit_tag = "%"
reported_result = 0

[[record]]
chemical_smiles = "COc1ccc(F)c(-c2c(Cl)nc(C)n2-c2cccc(F)c2)c1F"
unit_tag = "%"
reported_result = 86

[[record]]
chemical_smiles = "Cc1ccc(-n2cnc(Br)c2-c2c(F)ccc(F)c2Cl)cc1"
unit_tag = "%"
reported_result = 0

[[record]]
chemical_smiles = "N#Cc1ccc(F)c(-c2c(Cl)nc(Cl)n2-c2ccc(Cl)cc2)c1F"
unit_tag = "%"
reported_result = 0

[[record]]
chemical_smiles = "Cc1nc(Cl)n(-c2ccc(Cl)c(F)c2)c1-c1cncc(Br)c1"
unit_tag = "%"
reported_result = 17

[[record]]
chemical_smiles = "Cc1nc(Cl)n(-c2ccc(F)cc2Cl)c1-c1ccc(Cl)c(F)c1"
unit_tag = "%"
reported_result = 22

[[record]]
chemical_smiles = "COc1ccc(F)c(-c2c(Cl)nc(C)n2-c2ccc(C#N)cc2)c1F"
unit_tag = "%"
reported_result = 0

[[record]]
chemical_smiles = "CCOc1cc(F)c(-c2c(Cl)ncn2-c2cccc(F)c2)c(F)c1"
unit_tag = "%"
reported_result = 39

[[record]]
chemical_smiles = "COc1cc(F)c(-n2nnc(Cl)c2-c2ccc(Cl)cc2)c(F)c1"
unit_tag = "%"
reported_result = 0

[[record]]
chemical_smiles = "COc1ccc(F)c(-c2c(C)nc(Cl)n2-c2ccc(Cl)nc2)c1F"
unit_tag = "%"
reported_result = 41

[[record]]
chemical_smiles = "Fc1cc(F)c(-c2c(Cl)nc(Cl)n2-c2ccc(OC(F)(F)F)cc2)c(F)c1"
unit_tag = "%"
reported_result = 7

